Assignment: determine reported Mutant vs. 4E4.2 Parent B/D Ratio for the given binders.
- TARGET_OR_SYSTEM: T1, human CGRP receptor extracellular domain (ECD) (human, UniProt Q16602 23-138; O60894 27-117)
- T1 construct: also called CGRP receptor ECD; human CGRP receptor ECD
- T1 sequence (Q16602 23-138 limits assumed, chain 1 of 2): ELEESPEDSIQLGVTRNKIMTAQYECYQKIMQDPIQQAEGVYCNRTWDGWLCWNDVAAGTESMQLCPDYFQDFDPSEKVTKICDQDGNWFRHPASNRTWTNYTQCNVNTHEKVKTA
- T1 sequence (O60894 27-117 limits assumed, chain 2 of 2): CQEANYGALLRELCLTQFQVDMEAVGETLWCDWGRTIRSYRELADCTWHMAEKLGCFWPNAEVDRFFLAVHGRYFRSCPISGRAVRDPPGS
- MEASUREMENT_DESCRIPTION: yeast-displayed Fab, FACS, 10 nM human CGRP receptor ECD
Please append the unit to your numeric answer.

Record excerpt, results attached:
binder="anti-CGRP receptor variant 14, yeast-displayed Fab (Fab, V domains shown, also called Variant Ab ID 14) VH: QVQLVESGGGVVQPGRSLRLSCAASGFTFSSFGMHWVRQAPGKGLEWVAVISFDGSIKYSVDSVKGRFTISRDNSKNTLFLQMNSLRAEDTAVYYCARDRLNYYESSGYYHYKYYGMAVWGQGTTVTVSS VL: QSVLTQPPSVSAAPGQKVTISCSGSSSNIGNNYVSWYQQLPGTAPKLLIYDNNKRPSGIPDRFSGSKSGTSATLGITGLQTGDEADYYCGTWDSWHRVVTFGGGTKLTVLG" metric="Mutant vs. 4E4.2 Parent B/D Ratio" value_observed="2.2 fold"
binder="anti-CGRP receptor variant 02, yeast-displayed Fab (Fab, V domains shown, also called Variant Ab ID 02) VH: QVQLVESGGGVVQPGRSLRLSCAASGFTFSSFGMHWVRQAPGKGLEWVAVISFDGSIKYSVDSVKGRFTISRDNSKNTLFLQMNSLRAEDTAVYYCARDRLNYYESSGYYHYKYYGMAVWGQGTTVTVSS VL: QSVLTQPPSVSAAPGQKVTISCSGSRSNIGIKAVSWYQQLPGTAPKLLIYDNNKRPSGIPDRFSGSKSGTSATLGITGLQTGDEADYYCGTWDSRLSAVVFGGGTKLTVLG" metric="Mutant vs. 4E4.2 Parent B/D Ratio" value_observed="3.8 fold"

For anti-CGRP receptor variant 15, yeast-displayed Fab (Fab, V domains shown, also called Variant Ab ID 15) VH: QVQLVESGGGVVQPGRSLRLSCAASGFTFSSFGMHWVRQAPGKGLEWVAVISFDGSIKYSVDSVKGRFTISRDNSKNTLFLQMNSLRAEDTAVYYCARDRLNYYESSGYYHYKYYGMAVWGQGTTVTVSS VL: QSVLTQPPSVSAAPGQKVTISCSGSSSNIGNNYVSWYQQLPGTAPKLLIYDNNKRPSGIPDRFSGSKSGTSATLGITGLQTGDEADYYCGTWDWWRKAVIFGGGTKLTVLG , what is its reported Mutant vs. 4E4.2 Parent B/D Ratio?
2.7 fold

These data points were gathered from patent US20220363770A1.
